# TARGET: hERG (KCNH2) (Homo sapiens, UniProt Q12809)
# Sequence (Q12809 whole entry): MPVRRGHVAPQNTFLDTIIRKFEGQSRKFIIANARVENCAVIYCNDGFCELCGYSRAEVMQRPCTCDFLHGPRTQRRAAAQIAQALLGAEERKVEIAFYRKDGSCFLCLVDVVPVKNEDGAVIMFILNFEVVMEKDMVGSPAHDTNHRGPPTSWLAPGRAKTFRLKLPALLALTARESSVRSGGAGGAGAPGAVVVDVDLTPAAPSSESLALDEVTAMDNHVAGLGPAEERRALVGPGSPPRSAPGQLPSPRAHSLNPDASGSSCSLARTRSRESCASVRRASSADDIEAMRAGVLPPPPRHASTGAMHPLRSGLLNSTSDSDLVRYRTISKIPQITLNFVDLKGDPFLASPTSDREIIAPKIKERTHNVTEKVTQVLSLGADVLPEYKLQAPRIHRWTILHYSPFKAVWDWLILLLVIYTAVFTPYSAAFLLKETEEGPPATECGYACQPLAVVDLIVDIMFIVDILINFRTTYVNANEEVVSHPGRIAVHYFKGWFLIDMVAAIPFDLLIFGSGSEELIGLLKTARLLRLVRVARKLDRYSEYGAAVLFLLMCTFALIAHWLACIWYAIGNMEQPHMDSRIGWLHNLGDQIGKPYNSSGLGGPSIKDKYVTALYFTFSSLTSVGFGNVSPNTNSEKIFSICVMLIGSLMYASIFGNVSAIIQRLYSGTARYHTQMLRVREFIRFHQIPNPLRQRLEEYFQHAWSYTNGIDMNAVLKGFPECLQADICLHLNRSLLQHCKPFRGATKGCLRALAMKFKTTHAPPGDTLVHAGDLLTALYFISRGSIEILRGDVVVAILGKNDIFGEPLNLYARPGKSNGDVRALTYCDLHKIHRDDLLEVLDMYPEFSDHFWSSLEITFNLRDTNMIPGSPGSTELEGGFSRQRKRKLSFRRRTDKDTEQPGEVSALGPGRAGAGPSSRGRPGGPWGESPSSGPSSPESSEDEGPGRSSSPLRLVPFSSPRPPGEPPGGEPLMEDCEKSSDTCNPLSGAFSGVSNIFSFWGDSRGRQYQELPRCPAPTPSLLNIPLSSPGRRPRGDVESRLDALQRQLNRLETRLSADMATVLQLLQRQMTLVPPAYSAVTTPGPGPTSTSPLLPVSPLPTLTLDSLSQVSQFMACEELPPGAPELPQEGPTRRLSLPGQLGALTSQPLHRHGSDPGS
# PROTOCOL SUMMARY: Inhibition of human ERG expressed in HEK293 cells at 1 uM incubated for 2 to 5 mins by Manual patch clamp assay relative to control
# Format: toxicity, cell-based
# CONDITION LABEL: HEK293 cells expressing hERG, time 2-5 min
ASSAY ENDPOINT: inhibition at 1 µM (%)
Give the number; % is assumed, so skip it.

Quick check: inhibition at 1 µM of N#Cc1ccc(-c2ccc3c(n2)CCN(C[C@H](O)c2ccc4c(c2)COC4=O)C3)cc1F ? 80

Tell me the measured inhibition at 1 µM of Cc1c([C@@H](O)CN(C)Cc2ccc(-c3ccc(C#N)c(F)c3)nc2)ccc2c1COC2=O , please. 68

// inhibition at 1 µM lookup, key: Cc1c([C@@H](O)CNCc2ccc(-c3ccc(C#N)c(F)c3)nc2)ccc2c1COC2=O 66

Look at this compound and give its reported inhibition at 1 µM. Cc1cc(-n2cc(CN3CCCC(c4ccc5c(c4C)COC5=O)C3)cn2)ncc1C#N (centres undefined) 75

I would be grateful if you could share the reported inhibition at 1 µM for N#Cc1ccc(-c2ccc3c(c2)CCN(C[C@H](O)c2ccc4c(c2)COC4=O)C3)cc1F . 97

Entry Cc1c([C@@H](O)CN2CCc3nc(-c4ccc(C#N)c(F)c4)ncc3C2)ccc2c1COC2=O : reported inhibition at 1 µM = ? 71

Reported inhibition at 1 µM for Cc1cc(-n2cc(CN3CCNC(c4ccc5c(c4C)COC5=O)C3C)cn2)ncc1C#N (centres undefined) : what is it? 45

Please report the recorded inhibition at 1 µM for Cc1cc(-n2cc(CN3CC(O)C(c4ccc5c(c4C)COC5=O)C3)cn2)ncc1C#N (centres undefined) . 58

Field request: inhibition at 1 µM | item: Cc1cc(-n2cc(CN3C[C@@H](c4ccc5c(c4C)COC5=O)OC(C)(C)C3)cn2)ncc1C#N 13
